# Tested on: Candida albicans
# protocolDetails: Antifungal activity against Candida albicans in yeast extract-peptone-glucose medium at 375 ug/ml after 48 hrs by disc diffusion assay in presence of 0.01% of sodium dodecylsulphate
# Assay type: functional
# conditionNotes: read-out: DIZ
Overview of recorded zone of inhibition at 375 µg/mL for various compounds
Write the answer as a number in mm, unit excluded.

Dear colleague, please send me the reported zone of inhibition at 375 µg/mL for O=C(C(=O)N1CCOCC1)c1cn(CCCn2cc(C(=O)C(=O)N3CCOCC3)c3ccccc32)c2ccccc12 when you can. 8.5

Let me know recorded zone of inhibition at 375 µg/mL for O=C(C(=O)N1CCCC1)c1cn(CCCCCn2cc(C(=O)C(=O)N3CCCC3)c3ccccc32)c2ccccc12 , thanks. 6

Read the entry O=C(C(=O)N1CCOCC1)c1cn(CCCCCn2cc(C(=O)C(=O)N3CCOCC3)c3ccccc32)c2ccccc12 and write its reported zone of inhibition at 375 µg/mL. 7

Tell me measured zone of inhibition at 375 µg/mL for O=C(C(=O)N1CCCC1)c1cn(CCCCn2cc(C(=O)C(=O)N3CCCC3)c3ccccc32)c2ccccc12 please. 8

Values were extracted from ChEMBL document CHEMBL1777792.
